molecular target: M3 (Homo sapiens, UniProt P20309); experiment: In vitro functional assay of muscarinic acetylcholine receptor activity, M3; type: cell-based; details: antagonist IC50 at M3; read-out: M3 IC50
Sequence (P20309 whole entry): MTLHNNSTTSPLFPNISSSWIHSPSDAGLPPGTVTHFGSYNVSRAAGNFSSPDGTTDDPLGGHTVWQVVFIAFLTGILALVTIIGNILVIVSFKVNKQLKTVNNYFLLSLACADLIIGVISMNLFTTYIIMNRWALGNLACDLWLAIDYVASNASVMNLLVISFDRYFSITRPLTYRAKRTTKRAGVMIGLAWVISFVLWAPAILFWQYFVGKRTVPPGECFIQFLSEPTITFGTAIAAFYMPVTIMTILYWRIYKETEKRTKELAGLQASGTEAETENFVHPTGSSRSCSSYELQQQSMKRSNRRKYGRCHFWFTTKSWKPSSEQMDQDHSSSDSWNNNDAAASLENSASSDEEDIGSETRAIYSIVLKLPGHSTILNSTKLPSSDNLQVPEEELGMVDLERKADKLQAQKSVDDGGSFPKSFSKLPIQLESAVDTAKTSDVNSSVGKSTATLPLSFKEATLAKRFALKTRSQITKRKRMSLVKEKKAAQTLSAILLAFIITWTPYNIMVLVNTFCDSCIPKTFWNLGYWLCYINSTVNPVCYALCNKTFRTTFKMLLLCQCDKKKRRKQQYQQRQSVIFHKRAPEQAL
pIC50: −log10 of the molar value.
endpoint: pIC50

Before answering, review these 3 worked examples.
> print(dat)
                                givensmiles      reported
1  C[C@H]1CN(c2ccn3nccc3c2)CCN1C(=O)CCS(=O)(=O)c1cccc2ncsc12        < 5.00
2  Cc1cc(F)cnc1N1CCN(C(=O)CNCc2cccc3ncccc23)[C@@H](C)C1  5.00 to 6.00
3  O=C(CCS(=O)(=O)c1cccc2nccn12)N1C[C@H]2CC[C@@H](C1)N2c1ccncc1F  5.00 to 6.00

Return reported pIC50; argument: O=C(CCNCc1cccc2ncsc12)N1CCN(c2ccc(C(F)(F)F)cn2)CC1 < 5.00

====

molecular target: human M1 receptor (Homo sapiens); test: In vitro functional assay of muscarinic acetylcholine receptor activity (aequorin calcium flux, antagonist mode vs EC80 acetylcholine), M1; assay type: cell-based
Sequence (P11229 whole entry): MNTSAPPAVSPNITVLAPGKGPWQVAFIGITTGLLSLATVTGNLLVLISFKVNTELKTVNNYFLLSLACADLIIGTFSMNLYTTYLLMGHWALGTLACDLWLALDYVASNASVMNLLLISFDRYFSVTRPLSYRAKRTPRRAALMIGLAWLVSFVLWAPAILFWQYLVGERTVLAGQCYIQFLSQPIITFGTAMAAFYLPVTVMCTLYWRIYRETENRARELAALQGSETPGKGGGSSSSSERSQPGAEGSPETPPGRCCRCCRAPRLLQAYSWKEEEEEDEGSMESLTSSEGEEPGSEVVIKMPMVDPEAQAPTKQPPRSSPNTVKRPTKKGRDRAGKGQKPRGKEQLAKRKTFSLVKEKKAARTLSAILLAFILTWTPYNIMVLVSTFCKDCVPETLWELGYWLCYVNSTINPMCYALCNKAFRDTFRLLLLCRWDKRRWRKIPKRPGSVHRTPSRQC
pIC50: −log10 of the molar value.
endpoint: pIC50

> print(dat)
                                   compound  endpoint      reported
1  O=C(COCCc1cccc2ncccc12)N1C[C@H]2CC[C@@H](C1)N2c1ccncc1F [Example 11]     pIC50  6.00 to 7.00
2  N#Cc1cc(N2C3CCC2CN(C(=O)CCS(=O)(=O)c2cccc4nccn24)C3)ccc1F [Example 130]     pIC50        > 7.00
3  N#Cc1ccc(N2C3CCC2CN(C(=O)C2CC(NCc4cccc5ncsc45)C2)C3)nc1 (centres unmarked) [Example 30]     pIC50  6.00 to 7.00
4  N#Cc1ccc(N2C3CCC2CN(C(=O)CCNCc2cccc4ncnn24)C3)cc1 [Example 171]     pIC50  6.00 to 7.00

Entry under review: N#Cc1ccc(N2C3CCC2CN(C(=O)CCN(Cc2cccc4ncsc24)C2CC2)C3)nc1 [Example 35] . Reported pIC50? > 7.00

Returns the measured pIC50 for the input compound. Input: N#Cc1cc(N2C3CCC2CN(C(=O)CCS(=O)(=O)c2cccc4ncsc24)C3)ccc1F [Example 122] > 7.00

Entry N#Cc1ccc(N2C3CCC2CN(C(=O)C2CC(=Cc4cccc5ncccc45)C2)C3)nc1 (centres unmarked) [Example 194] : reported pIC50 = ? > 7.00

For the compound shown here, COc1cnc2cccc(CNCC(=O)N3C[C@H]4CC[C@@H](C3)N4c3ccncc3F)c2c1 [Example 71] , give the reported pIC50. 6.00 to 7.00

====

biological target: M2 (Homo sapiens); assay: In vitro functional assay of muscarinic acetylcholine receptor activity, M2; assay type: cell-based; conditions: antagonist IC50 at M2; read-out: M2 IC50
Sequence (P08172 whole entry): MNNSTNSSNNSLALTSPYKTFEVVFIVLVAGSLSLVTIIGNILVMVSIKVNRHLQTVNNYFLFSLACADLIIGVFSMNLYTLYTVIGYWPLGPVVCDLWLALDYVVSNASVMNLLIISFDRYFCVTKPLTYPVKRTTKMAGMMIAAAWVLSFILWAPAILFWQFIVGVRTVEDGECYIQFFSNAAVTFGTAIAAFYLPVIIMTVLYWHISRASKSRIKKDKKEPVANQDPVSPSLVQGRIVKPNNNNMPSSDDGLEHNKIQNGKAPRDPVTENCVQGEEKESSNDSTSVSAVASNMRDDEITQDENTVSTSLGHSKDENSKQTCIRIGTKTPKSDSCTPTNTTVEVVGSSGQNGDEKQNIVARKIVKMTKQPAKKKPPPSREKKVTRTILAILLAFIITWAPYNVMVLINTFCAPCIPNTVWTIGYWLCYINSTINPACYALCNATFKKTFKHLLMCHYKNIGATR
pIC50: −log10 of the molar value.
endpoint: pIC50

Check out these entries, answers already filled in.
> print(dat)
                                   compound                tgt      reported
1  N#Cc1ccc(N2CCN(C(=O)CCCc3cccc4ncoc34)CC2)nc1  M2 (Homo sapiens)  5.00 to 6.00
2  O=C(CCS(=O)(=O)c1cccc2ncsc12)N1CCN(c2c(Cl)cncc2Cl)CC1  M2 (Homo sapiens)  5.00 to 6.00
3  C[C@H]1CN(c2ccnc(N)c2)CCN1C(=O)CCS(=O)(=O)c1cccc2ncsc12  M2 (Homo sapiens)  6.00 to 7.00
4  O=C(CCCc1cccc2ncccc12)N1CCN(c2ccc(F)cn2)CC1  M2 (Homo sapiens)  5.00 to 6.00
5  O=C(CCNCc1c(F)ccc2nccn12)N1CC2CCC(C1)N2c1ccc(C(F)(F)F)cn1  M2 (Homo sapiens)  5.00 to 6.00
6  Nc1cc(N2CCN(C(=O)CCS(=O)(=O)c3cccc4ncsc34)CC2)c(Cl)cn1  M2 (Homo sapiens)        < 5.00
7  Cc1cc(F)cnc1N1CCN(C(=O)CCCc2cccc3ncccc23)C(C)C1 (centres unmarked)  M2 (Homo sapiens)        > 7.00

Query pIC50 on M2 (Homo sapiens) for COc1cnc2cccc(S(=O)(=O)CCCC(=O)N3CCN(c4ncc(F)cc4C)C[C@@H]3C)c2c1 6.00 to 7.00
